Measured Target: BRD4 (Homo sapiens)
Construct: Mean 488 intensity of BRD4 quantitated in nuclear region; endogenous in cells; host or cells: EoL-1 eosinophilic leukemia cells
Assay Protocol: BRD4 degradation assay in EOL1 cells (immunofluorescence imaging)
Format: cell-based
Details: EoL-1 eosinophilic leukemia cells, 4 hours treatment, nuclear BRD4 immunofluorescence
Starred links: 1 amine or outer side, 2 acyl side, 3 side chain; linkers in the order of their positions; H or OH if unused. Positions of bridges follow the written chain, without caps; N, C: chain ends. Non-standard residues stand in square brackets, D forms with d. Residues, ends and D or L forms follow the SMILES beside them. Groups on a side chain read outwards from the residue. *: point of attachment. JQ1acid = Cc1sc2c(c1C)C(c1ccc(Cl)cc1)=N[C@@H](CC(=O)*)c1nnc(C)n1-2; dPhg(4-(4-Me-thiazol-5-yl)) = Cc1ncsc1-c1ccc([C@@H](N)C(=O)O)cc1; X2 = COc1ccc2c(c1)C(c1ccc(Cl)cc1)=N[C@@H](CC(=O)*)c1nnc(C)n1-2; X9 = O=C(C[C@@H](Cc1ccc(-c2ccccc2)cc1)N[*:1])[*:2]; dBip = N[C@H](Cc1ccc(-c2ccccc2)cc1)C(=O)O; Hyp = O=C(O)[C@@H]1C[C@@H](O)CN1; Tle = CC(C)(C)[C@H](N)C(=O)O; AEEEA = NCCOCCOCCOCC(=O)O; dDap = NC[C@@H](N)C(=O)O; Ahx = NCCCCCC(=O)O; AEA = NCCOCC(=O)O
Property Measured: DC50

• Cc1sc2c(c1C)C(c1ccc(Cl)cc1)=N[C@@H](CC(=O)NC[C@H]1NC(=O)[C@@H](CCCCN)NC(=O)[C@@H](Cc3ccc(-c4ccccc4)cc3)NC(=O)[C@@H]3C[C@@H](O)CN3C(=O)[C@H](C(C)(C)C)NC(=O)COCCNC1=O)c1nnc(C)n1-2 [Compound 72] (cyclo([AEA][Tle][Hyp][dBip][dK][dDap](JQ1acid))) = < 1 µM
• COc1ccc2c(c1)C(c1ccc(Cl)cc1)=N[C@@H](CC(=O)NC[C@H]1NC(=O)CNC(=O)[C@@H](c3ccc(-c4scnc4C)cc3)NC(=O)[C@@H]3C[C@@H](O)CN3C(=O)[C@H](C(C)(C)C)NC(=O)CSC[C@H](C(N)=O)NC1=O)c1nnc(C)n1-2 [Compound 50] ({CH2CO}-[Tle][Hyp][dPhg(4-(4-Me-thiazol-5-yl))]G[dDap](X2)[dC]-NH2; thioether N-6) = < 1 µM
• Cc1sc2c(c1C)C(c1ccc(Cl)cc1)=N[C@@H](CC(=O)NC[C@H]1NC(=O)[C@@H](C)NC(=O)C[C@@H](Cc3ccc(-c4ccccc4)cc3)NC(=O)[C@@H]3C[C@@H](O)CN3C(=O)[C@H](C(C)(C)C)NC(=O)COCCNC1=O)c1nnc(C)n1-2 [Compound 65] (cyclo([AEA][Tle][Hyp][X9][dA][dDap](JQ1acid))) = > 20 µM
• Cc1ncsc1-c1ccc([C@H]2NC(=O)[C@@H]3C[C@@H](O)CN3C(=O)[C@H](C(C)(C)C)NC(=O)CSC[C@H](C(N)=O)NC(=O)[C@@H](CNC(=O)COCCOCCOCCNC(=O)C[C@@H]3N=C(c4ccc(Cl)cc4)c4c(sc(C)c4C)-n4c(C)nnc43)NC(=O)CNC2=O)cc1 [Compound 49] ({CH2CO}-[Tle][Hyp][dPhg(4-(4-Me-thiazol-5-yl))]G[dDap]([AEEEA-JQ1acid])[dC]-NH2; thioether N-6) = > 20 µM
• Cc1ncsc1-c1ccc([C@H]2NC(=O)[C@@H]3C[C@@H](O)CN3C(=O)[C@H](C(C)(C)C)NC(=O)CSC[C@@H](C(N)=O)NC(=O)[C@@H](CNC(=O)C[C@@H]3N=C(c4ccc(Cl)cc4)c4c(sc(C)c4C)-n4c(C)nnc43)NC(=O)CNC2=O)cc1 [Compound 28] ({CH2CO}-[Tle][Hyp][dPhg(4-(4-Me-thiazol-5-yl))]G[dDap](JQ1acid)C-NH2; thioether N-6) = > 20 µM
• Cc1sc2c(c1C)C(c1ccc(Cl)cc1)=N[C@@H](CC(=O)NC[C@H]1NC(=O)[C@@H](C)NC(=O)[C@@H](Cc3ccc(-c4ccccc4)cc3)NC(=O)[C@@H]3C[C@@H](O)CN3C(=O)[C@H](C(C)(C)C)NC(=O)CCCCCNC1=O)c1nnc(C)n1-2 [Compound 60] (cyclo([Ahx][Tle][Hyp][dBip][dA][dDap](JQ1acid))) = < 0.05 µM
